test system: 786-0 renal; assay: NCI-60 one-dose screen, 48 h (100 = growth as untreated, 0 = no growth, -100 = all killed); settings: 10 µM unless noted
The panel holds about 83,000 compounds, 20% with a hit somewhere; the sample as a whole holds those more often.
Entries and their growth values follow.
readout_type: growth (%)

compound=c1ccc2c(-c3cnn4cc(-c5ccc(N6CCNCC6)cc5)cnc34)ccnc2c1 target_desc="786-0 renal" readout_type=growth unit_annotation=% experimental_result=-91.9
compound=O=C1C(Nc2ccc(Br)cc2)=C(I)C(=O)c2ncccc21 target_desc="786-0 renal" readout_type=growth unit_annotation=% experimental_result=44.4
compound=COC(=O)[C@H](C)NC(=O)c1ccc(NC(=O)c2[nH]c(C)c(Cl)c2Cl)c(OCCN)c1 target_desc="786-0 renal" readout_type=growth unit_annotation=% experimental_result=98.6
compound=O=c1[nH]c(CN2CCN(c3ccccc3)CC2)nc2c(Br)cc(Br)cc12 target_desc="786-0 renal" readout_type=growth unit_annotation=% experimental_result=103
compound=Cc1ccc(Nc2oc(-c3ccccc3)nc2[P+](c2ccccc2)(c2ccccc2)c2ccccc2)cc1 target_desc="786-0 renal" readout_type=growth unit_annotation=% experimental_result=-77.5
compound=COc1cc(/C=N/NC(=O)c2ccc3nc(-c4ccc(Cl)cc4)[nH]c3c2)cc(OC)c1OC target_desc="786-0 renal" readout_type=growth unit_annotation=% experimental_result=51.2
compound="COc1cc2c(c(OC)c1OC)CCC(c1cccc(C(=O)Nc3ccc([N+](=O)[O-])cc3)c1)O2 (stereo not given)" target_desc="786-0 renal" readout_type=growth unit_annotation=% experimental_result=70.1
compound=CC(C)n1cc(C2=C(c3cccc4ccccc34)C(=O)NC2=O)c2cc(Br)ccc21 target_desc="786-0 renal" readout_type=growth unit_annotation=% experimental_result=54.9
compound=COc1cccc(-c2cc(-c3ccc(Nc4nc(Nc5ccc(Cl)cc5)nc(Nc5ccc(Cl)cc5)n4)cc3)nc(N)c2C#N)c1 target_desc="786-0 renal" readout_type=growth unit_annotation=% experimental_result=59.2
compound=COc1ccc(NC(=O)c2ccc(Cl)cc2Cl)cc1 target_desc="786-0 renal" readout_type=growth unit_annotation=% experimental_result=93
compound=COc1ccc(-c2csc(NC(=O)CSc3nc(C)cc(=O)[nH]3)n2)cc1 target_desc="786-0 renal" readout_type=growth unit_annotation=% experimental_result=102
compound=COC12C=C/C(=C(/C(=O)OCc3ccccn3)C(=O)CCCCCCCCC3(OC)C=C/C(=C(/C(=O)OCc4ccccn4)C(=O)CCCCCCCC1)O3)O2 target_desc="786-0 renal" readout_type=growth unit_annotation=% experimental_result=-72.5
compound=O=c1ccc2c(ccc3ncccc32)o1 target_desc="786-0 renal" readout_type=growth unit_annotation=% experimental_result=110
compound=COc1nc2ccccc2cc1/C=C1/C=C(c2ccccc2)NC1=O target_desc="786-0 renal" readout_type=growth unit_annotation=% experimental_result=29.5
compound=CCCCCCCCCCCCCC[n+]1ccc2c(C)c3c(c(C)c2c1)c1cc(O)ccc1n3CC target_desc="786-0 renal" readout_type=growth unit_annotation=% experimental_result=-73.4
compound=Fc1ccc(/C=C/c2cc(/C=C/c3ccc(F)cc3)n(-c3cc(F)cc(F)c3)n2)cc1 target_desc="786-0 renal" readout_type=growth unit_annotation=% experimental_result=77.4
compound=C1=C2CCCC3=Cc4ccccc4OC23Oc2ccccc21 target_desc="786-0 renal" readout_type=growth unit_annotation=% experimental_result=26.4
compound=C/C(=C(\c1ccc(OCCCN(C)C)cc1)c1ccc(OC(=O)Cc2ccccc2)cc1)c1ccc(Cl)cc1 target_desc="786-0 renal" readout_type=growth unit_annotation=% experimental_result=68.3
compound=CCCCCCCCNc1ncnc2c1ncn2Cc1nnc2c3ccccc3c(Cl)nn12 target_desc="786-0 renal" readout_type=growth unit_annotation=% experimental_result=47.7
compound=N#C/C(=N\Nc1ccccc1)C(=O)Nc1cc(-c2ccccc2)nn1-c1ccccc1 target_desc="786-0 renal" readout_type=growth unit_annotation=% experimental_result=50.5
